experiment: Tissue distribution of TET after a single i.t. administration in normal and LPS-treated mice; conditions: BALB/c, mouse, kidney, inhaled or intranasal, 15 mg/kg, t1/2, normal mice; 15 mg/kg i.t.
measured_metric: half-life (h)

>>> observed_result("COc1ccc2cc1Oc1ccc(cc1)C[C@H]1c3cc(c(OC)cc3CCN1C)Oc1c(OC)c(OC)cc3c1[C@H](C2)N(C)CC3 [TET, Tetrandrine]")
63.4

---

Experiment: Tissue distribution of TET after a single i.t. administration in normal and LPS-treated mice
Conditions: BALB/c, mouse, intestine, inhaled or intranasal, 15 mg/kg, Tmax, normal mice; 15 mg/kg i.t.
Experimental: The different tissue distribution characteristics of TET in normal and pneumonia model mice via i.t. delivery were investigated. Thirty BALB/c mice were randomly divided into ten groups (n = 3 for each group). […] Pharmacokinetic parameters including t1/2, AUC(0-t), AUC(0-∞), and MRT were calculated using WinNonlin 7.0 (Pharsight, CA) by the non-compartmental model. […] Blood clearance (CL) was calculated as the i.v. dose divided by AUCinf. […]
measured_metric: Tmax (h)

>>> observed_result("COc1ccc2cc1Oc1ccc(cc1)C[C@H]1c3cc(c(OC)cc3CCN1C)Oc1c(OC)c(OC)cc3c1[C@H](C2)N(C)CC3")
4
